MEASURED TARGET: T1, human ROR2 expressed on the cell surface (human, UniProt Q01974 34-943)
T1 construct: Endogenous ROR2 of human tumour cell lines; also called cell surface ROR2; ROR2 on tumour cell lines
T1 sequence (Q01974 34-943 limits assumed): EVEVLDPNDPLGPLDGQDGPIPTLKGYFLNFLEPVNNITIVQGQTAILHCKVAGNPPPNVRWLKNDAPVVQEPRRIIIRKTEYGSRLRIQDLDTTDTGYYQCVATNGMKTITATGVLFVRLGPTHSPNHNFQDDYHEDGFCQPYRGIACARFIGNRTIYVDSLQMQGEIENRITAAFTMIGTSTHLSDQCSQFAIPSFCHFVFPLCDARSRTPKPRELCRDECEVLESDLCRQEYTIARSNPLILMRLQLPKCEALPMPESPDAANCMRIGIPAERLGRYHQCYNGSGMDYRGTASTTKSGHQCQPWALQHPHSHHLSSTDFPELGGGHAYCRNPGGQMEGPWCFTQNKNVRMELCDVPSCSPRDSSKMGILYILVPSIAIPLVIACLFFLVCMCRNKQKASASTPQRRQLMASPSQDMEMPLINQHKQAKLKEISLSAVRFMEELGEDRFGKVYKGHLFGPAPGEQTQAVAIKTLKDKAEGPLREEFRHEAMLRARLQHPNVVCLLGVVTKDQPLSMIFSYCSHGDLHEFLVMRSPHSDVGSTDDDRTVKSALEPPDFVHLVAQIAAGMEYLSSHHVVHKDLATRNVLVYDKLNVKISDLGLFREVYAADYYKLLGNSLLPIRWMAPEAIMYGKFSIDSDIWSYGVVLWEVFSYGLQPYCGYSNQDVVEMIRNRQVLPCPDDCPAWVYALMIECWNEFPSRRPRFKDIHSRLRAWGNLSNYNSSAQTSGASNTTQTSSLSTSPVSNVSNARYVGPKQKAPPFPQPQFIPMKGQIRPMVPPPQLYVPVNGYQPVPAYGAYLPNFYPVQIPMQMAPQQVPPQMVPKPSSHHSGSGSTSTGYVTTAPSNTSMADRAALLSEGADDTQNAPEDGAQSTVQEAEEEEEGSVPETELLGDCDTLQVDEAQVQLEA
ASSAY NOTES: flow cytometry, SKBR3 cells (breast CA)
Set-up: reference not given here
ASSAY ENDPOINT: binding intensity
// no unit string in output, number only

[in] Would you mind telling me what binding intensity value was observed for ROR2-241 full length human IgG1 antibody (antibody, V domains shown) VH: EVQLVQSGAEVKKPGASVKVSCKASGYTFTNYYIHWVRQAPGQGLEWMGIINPTSGRTRYAQRFQGRVTMTRDTSTNTVYMDLSSLRSEDTAMYYCARSGYYWGVNGDQWGQGTLVTVSS VL: SYELTQPLSVSVALGQTARITCGGNNIGSKNVHWYQQKPGQAPVLVIYRDSNRPSGIPERFSGSNSGNTATLTISRAQAGDEADYYCQVWDSSIVVFGGGTKLTVLG ?
[out] 27

[in] Recorded binding intensity of ROR2-90 full length human IgG1 antibody (antibody, V domains shown, also called clone #90; antibody #90) VH: EVQLVESGPGLVKPSQTLSLTCTVSGGSISSGGYYWSWIRQHPGKGLEWIGYIYYSGSTYYNPSLKSRVTISVDTSKNQFSLKLSSVTAADTAMYYCARGGLYWTYSQDVWGQGTLVTVSS VL: QPVLTQPPSASGTPGQRVTISCSGSSSNIGSDYVSWYQQLPGTAPKLLIYRNDQRPSGVPDRFSGSKSGTSASLAISGLRSEDEADYYCVAWDDSLSGYVFGSGTKVTVLG , please.
[out] 98

[in] May I ask what binding intensity has been recorded for ROR2-27 full length human IgG1 antibody (antibody, V domains shown, also called clone #27; clone #027 IgG1) VH: QVQLVESGAEVKKPGESLKISCKASGYSFSNYWIGWVRQMPGKGLEWMGIIYPDDSDTRYSPSFQGQVTISADKSISTAYLQWYSLKVADTAKYYCVRPRGAFDIWGQGTTVTVSS VL: QSVLTQPPSVSGAPGQRVTISCTGSSSNIGAGHAVHWYQQLPGTAPKLLIYDNANRPSGVPDRFSGSQSGTSASLAITGLQTGDEADYYCGTWDDSPSAYVFGTGTKVTVLG ?
[out] 15

// data source = patent US20180127503A1
